Cited source: patent US20220267310A1

protocol_notes: Pharmacokinetic evaluation in mice, IV and PO
Assay type: in vivo, Balb/c female mice
applied_conditions: female, Balb/c; PO(10 mg/kg), mouse plasma
quantity_measured: half-life (h)
Quick note: give the figure in h, leave out the unit.

Determine its reported half-life: COc1ccc([C@@H](O)c2cc(-c3nncc4cc(N5CCOCC5)ccc34)c(F)cc2Cl)nn1 [Embodiment M3814, reference compound] 1.43

----------
system: DNA-PK (h) (Homo sapiens)
Construct: Eurofins Pharma Discovery Service (contract assay)
protocol_notes: DNA-PK kinase inhibitory activity (HTRF, Eurofins)
Format: biochemical
applied_conditions: ATP: 10 μM
quantity_measured: IC50 (nM)
Quick note: give the figure in nM, leave out the unit.

Determine its reported IC50: COc1ccc(C(O)c2cc(-c3ccnc4cc(N5CCOCC5)ccc34)c(F)cc2Cl)nn1 (single isomer, unassigned) [Embodiment 1] 82

Determine its reported IC50: COc1ccc(C(O)c2cc(-c3cc(C(F)F)nc4cc(N5CCOCC5)ccc34)c(F)cc2Cl)nn1 (single isomer, unassigned) [Embodiment 16] 4250

Determine its reported IC50: COc1ccc(C(O)c2cc(-c3cc(C(F)F)nc4cc(N5CCOCC5)ccc34)c(F)cc2Cl)nn1 (single isomer, unassigned) [Embodiment 15] 71
